Entries annotated with measured melting point

1) C=Cc1cn(-c2ccccn2)c2c1C(=O)CC(C)(C)C2 [Example 18] = 150 to 154 °C

// query Dear colleague, I am looking for the recorded melting point of the following compound: CC1(C)CC(=O)c2c(SCc3ccccc3)cn(-c3ccccn3)c2C1 [Example 14]
// result 190 to 192 °C

// query Dear colleague, I am looking for the recorded melting point of the following compound: CCc1cn(-c2ccccn2)c2c1C(=O)CC(C)(C)C2 [Example 1]
// result 125 to 127 °C

// query Dear colleague, I am looking for the recorded melting point of the following compound: CC1(C)CC(=O)c2c(-c3ccccn3)cn(-c3ccccn3)c2C1 [Example 17]
// result 171 to 174 °C

// query Dear colleague, I am looking for the recorded melting point of the following compound: CC1(C)CC(=O)c2c(C(C)(C)C)cn(-c3ccccn3)c2C1 [Example 2]
// result 143 to 145 °C

// query Dear colleague, I am looking for the recorded melting point of the following compound: CCc1cn(-c2nccs2)c2c1C(=O)CC(C)(C)C2 [Example 5]
// result 58 to 60 °C

// query Dear colleague, I am looking for the recorded melting point of the following compound: CCc1cn(-c2ncccn2)c2c1C(=O)CC(C)(C)C2 [Example 4]
// result 111 to 114 °C

// query Dear colleague, I am looking for the recorded melting point of the following compound: CC1(C)CC(=O)c2c(Nc3ccccc3)cn(-c3ccccn3)c2C1 [Example 22]
// result 135 to 138 °C

// query Dear colleague, I am looking for the recorded melting point of the following compound: CC1(C)CC(=O)c2c(-c3cncs3)cn(-c3ccccn3)c2C1 [Example 21]
// result 167 to 169 °C

// query Dear colleague, I am looking for the recorded melting point of the following compound: CC1(C)CC(=O)c2c(-c3ccccc3)cn(-c3ccccn3)c2C1 [Example 16]
// result 160 to 162 °C

// query Dear colleague, I am looking for the recorded melting point of the following compound: CC1(C)CC(=O)c2c(Nc3ccccn3)cn(-c3ccccn3)c2C1 [Example 23]
// result 180 to 183 °C

// query Dear colleague, I am looking for the recorded melting point of the following compound: CC1(C)CC(=O)c2c(Cc3ccccc3)cn(-c3ccccn3)c2C1 [Example 19]
// result 111 to 113 °C

// query Dear colleague, I am looking for the recorded melting point of the following compound: CC1(C)CC(=O)c2c(-c3nccs3)cn(-c3ccccn3)c2C1 [Example 15]
// result 166 to 168 °C
